Target: T1, His-tagged CEACAM1 (human, UniProt P13688 35-428)
T1 construct: 45 kDa SPR analyte; also called CEACAM1-HIS; CEACAM1 analyte
T1 sequence: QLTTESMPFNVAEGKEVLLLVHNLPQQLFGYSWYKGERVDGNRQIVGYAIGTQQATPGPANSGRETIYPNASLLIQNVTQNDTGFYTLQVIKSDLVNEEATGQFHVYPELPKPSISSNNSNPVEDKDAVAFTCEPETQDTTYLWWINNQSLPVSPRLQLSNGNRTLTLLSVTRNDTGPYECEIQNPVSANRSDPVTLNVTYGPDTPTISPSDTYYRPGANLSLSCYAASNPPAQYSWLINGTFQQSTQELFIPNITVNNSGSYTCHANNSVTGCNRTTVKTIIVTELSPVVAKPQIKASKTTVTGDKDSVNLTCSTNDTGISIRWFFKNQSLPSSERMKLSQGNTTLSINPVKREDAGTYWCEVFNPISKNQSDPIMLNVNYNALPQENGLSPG
Assay: SPR single-cycle, supernatant IgG captured
MEASUREMENT_TYPE: koff (s⁻¹)
Give the value, in units of s⁻¹, as a plain number.

The binder listed as CP08B03/Vκ8 S29A (antibody, IgG4, V domains shown, IgG4 (S241P), kappa) VH: EVQLLESGGGLVQPGGSLRLSCAASGFTFTAHAISWVRQAPGKGLEWVATISSGGTYTYYPDSVKGRFTISRDNSKNTLYLQMNSLKAEDTAMYYCARHDFDYDAAWFAYWGQGTLVTVSS VL: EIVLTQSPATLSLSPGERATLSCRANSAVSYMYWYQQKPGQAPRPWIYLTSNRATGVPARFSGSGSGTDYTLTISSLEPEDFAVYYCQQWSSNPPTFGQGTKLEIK has a reported koff of 0.069

The binder listed as CP09D03/Vκ8 S29A (antibody, IgG4, V domains shown, IgG4 (S241P), kappa) VH: EVQLLESGGGLVQPGGSLRLSCAASGFTFSSHAISWVRQAPGKGLEWVATISSGGTYTYYPDSVKGRFTISRDNSKNTLYLQMNSLKAEDTAMYYCARHDFDYDAAWFAYWGQGTLVTVSS VL: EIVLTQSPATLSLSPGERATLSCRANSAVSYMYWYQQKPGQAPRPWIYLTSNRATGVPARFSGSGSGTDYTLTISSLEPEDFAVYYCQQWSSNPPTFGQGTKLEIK has a reported koff of 0.033

The binder listed as CP09B03/Vκ8 S29A (antibody, IgG4, V domains shown, IgG4 (S241P), kappa) VH: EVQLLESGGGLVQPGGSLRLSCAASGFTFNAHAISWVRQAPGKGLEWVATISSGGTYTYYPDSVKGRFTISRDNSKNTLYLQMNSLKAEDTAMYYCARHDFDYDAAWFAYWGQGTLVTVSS VL: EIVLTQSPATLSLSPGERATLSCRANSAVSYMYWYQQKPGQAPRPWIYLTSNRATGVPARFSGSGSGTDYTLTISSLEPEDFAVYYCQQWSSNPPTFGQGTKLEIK has a reported koff of 0.039

The binder listed as CP09A04/Vκ8 S29A (antibody, IgG4, V domains shown, IgG4 (S241P), kappa) VH: EVQLLESGGGLVQPGGSLRLSCAASGFSFNAHAMSWVRQAPGKGLEWVATISSGGTYTYYPDSVKGRFTISRDNSKNTLYLQMNSLKAEDTAMYYCARHDFDYDAAWFAYWGQGTLVTVSS VL: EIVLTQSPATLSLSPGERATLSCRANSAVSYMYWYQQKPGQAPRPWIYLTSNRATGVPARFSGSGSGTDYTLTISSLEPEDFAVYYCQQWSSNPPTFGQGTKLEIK has a reported koff of 0.036

The binder listed as CP08A03/Vκ8 S29A (antibody, IgG4, V domains shown, IgG4 (S241P), kappa) VH: EVQLLESGGGLVQPGGSLRLSCAASGFIFNNHAISWVRQAPGKGLEWVATISSGGTYTYYPDSVKGRFTISRDNSKNTLYLQMNSLKAEDTAMYYCARHDFDYDAAWFAYWGQGTLVTVSS VL: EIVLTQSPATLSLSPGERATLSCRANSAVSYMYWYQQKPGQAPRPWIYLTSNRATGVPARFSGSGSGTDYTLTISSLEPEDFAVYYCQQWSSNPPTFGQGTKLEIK has a reported koff of 0.039
